assayed-target: YAP-TEAD interaction (full length human TEAD1-Gal4 fusion, full length YAP mutant S127A, S397A) (UniProt P04386+P28347)
Construct: The TEAD1 construct was prepared by cloning the full length human TEAD1 cDNA; expressed in transfected cells; host or cells: HEK293 GripTite 293 MSR (Invitrogen R795-07), transiently transfected with pSG5_CMV plasmids
Sequence (P04386+P28347 fused, stated change not applied): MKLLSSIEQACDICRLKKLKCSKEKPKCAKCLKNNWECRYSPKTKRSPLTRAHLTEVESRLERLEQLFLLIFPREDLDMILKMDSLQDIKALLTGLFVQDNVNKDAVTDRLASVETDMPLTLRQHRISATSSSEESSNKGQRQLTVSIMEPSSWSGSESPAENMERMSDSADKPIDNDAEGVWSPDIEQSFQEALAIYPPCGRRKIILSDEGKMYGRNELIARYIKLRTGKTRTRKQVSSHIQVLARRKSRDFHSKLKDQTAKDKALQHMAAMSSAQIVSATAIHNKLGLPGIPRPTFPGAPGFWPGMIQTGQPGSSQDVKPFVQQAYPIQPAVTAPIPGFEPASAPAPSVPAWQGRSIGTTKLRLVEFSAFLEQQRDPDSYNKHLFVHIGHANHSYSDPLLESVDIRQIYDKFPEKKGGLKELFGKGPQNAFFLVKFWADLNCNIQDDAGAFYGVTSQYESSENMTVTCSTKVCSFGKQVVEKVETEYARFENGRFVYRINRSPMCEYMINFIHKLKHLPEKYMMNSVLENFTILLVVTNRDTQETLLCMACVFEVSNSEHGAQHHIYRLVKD
protocol-description: Cell-based TEAD-GAL4 transactivation assay (luciferase reporter, HEK293)
stated-conditions: HEK293 cells, compounds 0.1 μM to 30 μM, 24 h, concentration that inhibited the luciferase activity by 50%
The threshold is 3 µM. Values of IC50 beneath it are tagged met; values meeting or exceeding it are tagged not met.

                                        mol  group_label
0  COc1cc(/C=N/N(C)C2=NS(=O)(=O)c3ccc(OCCN(C)C)cc32)ccc1F          met
1  CN(/N=C/c1cccc(OCCO)c1)C1=NS(=O)(=O)c2ccccc21          met
2  CCOc1ccc2c(c1)S(=O)(=O)N=C2N(CC(C)C)/N=C/c1ccc2c(c1)C(CC)(CC)C(=O)N2          met
3  CN(/N=C/c1cccc(N(C)C)c1)C1=NS(=O)(=O)c2ccccc21      not met
4  CCOCCN(/N=C/c1ccc(F)c(OC)c1)C1=NS(=O)(=O)c2ccccc21          met

Prompt line: Say whether its IC50 is strictly beneath 3 µM. Entry: `COc1cc(/C=N/N(CC(C)C)C2=NS(=O)(=O)c3ccccc32)ccc1F`
Response line: not met

Prompt line: Say whether its IC50 is strictly beneath 3 µM. Entry: `CN(/N=C/c1cnc(N2CCCC2)s1)C1=NS(=O)(=O)c2ccccc21`
Response line: met

Prompt line: Say whether its IC50 is strictly beneath 3 µM. Entry: `CC(C)Oc1cc(/C=N/N(C)C2=NS(=O)(=O)c3ccccc32)ccc1F`
Response line: not met
